- System: SEM cells
- PROCEDURE SUMMARY: cell viability relative to DMSO control; higher = less cytotoxic
- RUN PARAMETERS: HPLM + 10% dialyzed FBS; 48 h; 15.4 µM
Response field label: string, one of Yes (cell viability strictly below 90%) or No.

Below, 5 compounds whose answers are already recorded.
COMPOUND | CAT
O=C(O)[C@@H](c1ccc(OCc2ccc3ccccc3n2)cc1)C1CCCC1 | No
O=C1CCC[C@@H]2[C@H]3CCC[N+]4([O-])CCC[C@@H](CN12)[C@@H]34 (some centres undefined) | Yes
NC(=O)c1cnc(-c2ccc(C3(N)CCC3)cc2)c(-c2ccccc2)c1 | Yes
COc1ccc(CC2c3cc(OC)c(OC)cc3CC[N+]2(C)CCC(=O)OCCCCCOC(=O)CC[N+]2(C)CCc3cc(OC)c(OC)cc3C2Cc2ccc(OC)c(OC)c2)cc1OC (centres undefined) | Yes
C/C(=C\c1csc(C)n1)[C@@H]1C[C@@H]2O[C@]2(C)CCC[C@H](C)[C@H](O)[C@@H](C)C(=O)C(C)(C)[C@@H](O)CC(=O)O1 | Yes

q: Is cell viability strictly under 90% for the entry CN1C2=CC(=O)/C(=N/NC(N)=O)C=C2CC1S(=O)(=O)[O-].[Na+] (centres undefined) ?
a: No

q: Say whether its cell viability is strictly beneath 90%. Entry: CNC1CCCN(c2c(F)cc3c(=O)c(C(=O)O)cn(C4CC4)c3c2OC)C1 (centres undefined)
a: No

----------
Reported values of cell viability for individual entries
- Test system: P12-Ichikawa
- PROCEDURE SUMMARY: cell viability relative to DMSO control; higher = less cytotoxic
- RUN PARAMETERS: HPLM + 10% dialyzed FBS; 48 h; 0.00234 µM
Note: unit % is implicit; provide only the numeric part.

COMPOUND | TESTED ON | QUANTITY | UNIT LABEL | MEASURED NUMBER
CCCOc1ccc2[nH]c(NC(=O)OC)nc2c1 | P12-Ichikawa | cell viability | % | 122
CC1(C)Cc2c(sc(NC(=S)NC(=O)c3ccccc3)c2C(=O)O)CO1 | P12-Ichikawa | cell viability | % | 109
CN1\N=N/C2=C(N=C[N]2C1=O)C(N)=O | P12-Ichikawa | cell viability | % | 124
CN(C)/[N+]([O-])=N/Oc1cc(ON[N+](=O)N2CCN(C(=O)c3cc(Cc4n[nH]c(=O)c5ccccc45)ccc3F)CC2)c([N+](=O)[O-])cc1[N+](=O)[O-] | P12-Ichikawa | cell viability | % | 105
CN1CCN(Cc2ccc(NC(=O)Nc3ccc(Oc4cc(NC(=O)C5CC5)ncn4)cc3)cc2C(F)(F)F)CC1 | P12-Ichikawa | cell viability | % | 108
CCc1cccc2c3c([nH]c12)C(CC)(CC(=O)O)OCC3 (stereo not given) | P12-Ichikawa | cell viability | % | 107
O=C(O)CSCC(=O)NC1CCSC1=O (stereo not given) | P12-Ichikawa | cell viability | % | 108
Cc1cc(SCc2sc(-c3ccc(C(F)(F)F)cc3)nc2C)ccc1OCC(=O)O | P12-Ichikawa | cell viability | % | 102
CNNCc1ccc(C(=O)NC(C)C)cc1 | P12-Ichikawa | cell viability | % | 123
C=C[C@H]1CN2CCC1C[C@@H]2[C@@H](O)c1ccnc2ccccc12 (stereo not given in full) | P12-Ichikawa | cell viability | % | 99.5

q: # cell viability lookup, item O=C([O-])[C@H](CC(=O)N1C[C@H]2CCCC[C@H]2C1)Cc1ccccc1
a: 118

q: Fill in the blank: the reported cell viability of O=C(O)c1ccc(-c2c[nH]c3ncc(-c4ccccc4)cc23)cc1C1CCCC1 is ____.
a: 113

q: Look at this compound and give its reported cell viability. CC(C)(C)Cn1c(N)nc2ccc(-c3[nH]c(C(C)(C)C)nc3-c3ccc(F)cc3)nc21
a: 96.3

q: Suppose we examine the compound Nc1nc(Nc2ccc([S+](N)(=O)[O-])cc2)nn1C(=O)c1c(F)cccc1F ; what cell viability value has been reported?
a: 109

q: Which cell viability is reported for this compound? COc1nccc(-c2c(-c3ccc(F)cc3)ncn2C2CCC(O)CC2)n1 (stereo not given)
a: 117

q: Given OC(CCN1CCCCC1)(C2CC\3CC2\C=C3)C4=CC=CC=C4 (stereo not given) , state its recorded cell viability.
a: 128

q: Reported cell viability, compound Cc1ccc(NC(=O)c2cccc(N(C)C)c2)cc1NC(=O)c1ccc(O)cc1 : ____
a: 120

q: Which cell viability value belongs to CCOc1cc(/C=C2/C(=O)N(c3ccccc3)N=C2C)cc(Cl)c1OCC(=O)OC ?
a: 90.9

q: Item under review: OCCNC1CCCc2c1[nH]c1ccc(-c3ccccc3)cc21 (stereo not given) . Reported cell viability?
a: 107

q: Dear colleague, I am looking for the recorded cell viability of the following compound: C=CC(=O)Nc1cccc(Oc2nc(Nc3ccc(N4CCN(C)CC4)cc3OC)ncc2Cl)c1
a: 79.3
